Reference source for all entries: patent US20220296726A1

Listed next: entries and their corresponding pKd.
- Assay target: T1, Human TREM2 extracellular domain (ECD), residues 19-131, C-terminally biotinylated, deglycosylated (human, UniProt Q9NZC2 19-131, C-terminally biotinylated; deglycosylated)
- T1 construct: range 19-131; loaded on Superstreptavidin biosensors; also called triggering receptor expressed on myeloid cells 2; Human BLI (deglycosylated)
- T1 sequence (looked up): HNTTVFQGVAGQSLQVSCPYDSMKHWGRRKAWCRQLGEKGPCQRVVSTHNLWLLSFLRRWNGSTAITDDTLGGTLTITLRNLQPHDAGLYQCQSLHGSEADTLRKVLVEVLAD
- Assay name: BLI steady state, deglycosylated human TREM2 ECD on sensor
pKd: −log10 of the molar value. *1 amine or outer side, *2 acyl side, *3 side chain or, on linkers, in order; H or OH if unused. Bridges are numbered along the chain shown (N, C = ends). Where no end group is shown, it is not given here. The star is where a group is joined. TATA = O=C(CC[*:1])N1CN(C(=O)CC[*:2])CN(C(=O)CC[*:3])C1; Pent4ynoyl = C#CCCC(=O)*
Reported endpoint: pKd

In [3]: df
Out[3]:
                                     binder  recorded_measurement
0  CSEYCFWXFYHC (N-terminal acetyl (Ac); CiSEYCiiFW[44DFP]FYHCiii; Ci, Cii, Ciii on TATA scaffold) [BCY20066]                  5.73
1  Ac-CSEYCFWPFYHCK(Pent4ynoyl) (linker 1-5-12 via TATA) [BCY20085]                  5.79
2  CSEYCFWXFYHC (N-terminal acetyl (Ac); CiSEYCiiFW[Pip]FYHCiii; Ci, Cii, Ciii on TATA scaffold) [BCY20069]                  5.84
